# System: B16F10, U87, SKOV3 and LX2 cells
# protocol: Cytotoxicity (CCK8, 48 h), figures stated across several cell lines
# Assay type: cell-based
# setup_conditions: read-out: IC50 values against all four cell lines
pIC50: −log10 of the molar value.
outcome_measure: pIC50

Answer with the recorded pIC50 for the compound listed here: COc1cccc2c1C(=O)c1c(O)c3c(c(O)c1C2=O)C[C@@](O)(C(=O)CO)C[C@@H]3O[C@H]1C[C@H](N)[C@H](O)[C@H](C)O1 [Dox, doxorubicin] 5.35 to 5.69
